The following variants are listed with their measured protein stability index values.
B1: RTN1 (parent)
chain: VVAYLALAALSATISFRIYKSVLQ

Variants of: B1
Experiment: protein stability index of a GFP-peptide fusion (GPS, HEK-293T) (PSI 1-6); higher = more stable;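 note: lentivirally expressed fusions sorted by FACS into six bins by GFP to DsRed ratio, PSI derived from sequencing read proportions per bin multiplied by bin number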
Details: c terminus: a fixed tail appended
Form field (numeric): enter value without unit.

Use the examples below as a reference point.
[[record]]
sequence_chain = "VVAYQALAALSATISFRIYKSVLQ [L5Q]"
test_value = 2.8

[[record]]
sequence_chain = "VVAYLALAALSATISFRIYKSVLL [Q24L]"
test_value = 2.2

[[record]]
sequence_chain = "VVAYLAPAALSATISFRIYKSVLQ [L7P]"
test_value = 2.7


Value of measured protein stability index for the entry VVAYLALAALSATISFRIYKSYLQ [V22Y] : 4.13

Value of measured protein stability index for the entry VVAYLALAALKATISFRIYKSVLQ [S11K] : 2.4

Value of measured protein stability index for the entry VVAYLALAALSATISFRSYKSVLQ [I18S] : 2.78

Value of measured protein stability index for the entry VVAYEALAALSATISFRIYKSVLQ [L5E] : 1.58

Value of measured protein stability index for the entry VVAKLALAALSATISFRIYKSVLQ [Y4K] : 2.3

Value of measured protein stability index for the entry VVAYLALAALSAEISFRIYKSVLQ [T13E] : 3.33

Value of measured protein stability index for the entry VVAYLALAALSQTISFRIYKSVLQ [A12Q] : 2.67
